Tested on: Rattus norvegicus
Test protocol: Dose normalized unbound AUC in Sprague-Dawley rat at 3 mg/kg, po administered via gavage as single dose by LC-MS/MS analysis
Assay type: ADME, organism-based
Measurement setup: in vivo
Measurement kind: fAUC/dose (µM·min)
Numeric only. Scale: µM·min

Please review the following examples before continuing.
Item smiles | Observed result
CN(C(=O)[C@@H](CC(=O)O)Cc1ccccc1)c1nc(-c2ccccc2Cl)cs1 | 2.4
CC(C)[C@H](C(=O)Nc1nccs1)c1ccc(Cl)cc1 | 0.08
CC(C)C[C@H](CC(=O)O)C(=O)N(c1nc(-c2ccccc2-c2ccc(-n3cccn3)nc2)cs1)C1CC1 | 0.55
O=C(O)C[C@@H](Cc1ccccc1)C(=O)N(c1nc(-c2ccccc2Cl)cs1)C1CC1 | 0.7

API: the following record is the query input.
[Q] Query (molecule): COc1ccc(-c2ccccc2-c2csc(N(C(=O)[C@@H](CC(=O)O)CC(C)C)C3CC3)n2)cn1 ; field requested: fAUC/dose
[A] 2.1

====

logD by entry:
Test protocol: Octanol-PBS buffer partition coefficient, log D of the compound at pH 7.4 by shake flask method

The examples below pair each entry with its known result.
Item smiles | logD
CC(C)[C@H](C(=O)Nc1nccs1)c1ccc(Cl)cc1 | 3.94
CN(C(=O)[C@@H](CC(=O)O)Cc1ccccc1)c1nc(-c2ccccc2Cl)cs1 | 2.31
CN(C(=O)[C@@H](CC(=O)O)CC1CCOCC1)c1nc(-c2ccccc2Cl)cs1 | 1.27

[Q] # query: logD of entry CN(C(=O)[C@@H](CC(=O)O)CC1CCCC1)c1nc(-c2ccccc2Cl)cs1
[A] 2.87

====

Below, each of the compounds is paired with its reported bioavailability value.
Test protocol: Oral bioavailability in Sprague-Dawley rat at 3 mg/kg administered via gavage as single dose by LC-MS/MS analysis
Format: ADME, organism-based
Measurement setup: in vivo
# number only, unit % dropped from output

Worked examples, 4 compounds total:
Item smiles | bioavailability / %
COc1ccc(-c2ccccc2-c2csc(N(C(=O)[C@@H](CC(=O)O)CC3CCCC3)C3CC3)n2)cn1 | 47
O=C(O)C[C@@H](Cc1ccccc1)C(=O)N(c1nc(-c2cc(Cl)ccc2Cl)cs1)C1CC1 | 47
COc1ccc(-c2ccc(Cl)cc2-c2csc(N(C(=O)[C@@H](CC(=O)O)Cc3ccco3)C3CC3)n2)cn1 | 38
CC(C)C[C@H](CC(=O)O)C(=O)N(c1nc(-c2ccccc2-c2ccc(-n3cccn3)nc2)cs1)C1CC1 | 29

[Q] Would you kindly share the measured bioavailability for COc1ccc(-c2ccccc2-c2csc(N(C(=O)[C@@H](CC(=O)O)CC(C)C)C3CC3)n2)cn1 ?
[A] 35

[Q] // query bioavailability value for entry O=C(O)C[C@@H](CC1CCCC1)C(=O)N(c1nc(-c2ccccc2-c2ccc(-n3cccn3)nc2)cs1)C1CC1
[A] 25

[Q] Fill in: bioavailability of CN(C(=O)[C@@H](CC(=O)O)Cc1ccccc1)c1nc(-c2ccccc2Cl)cs1 is ___
[A] 77

[Q] Item O=C(O)C[C@@H](Cc1ccccc1)C(=O)N(c1nc(-c2ccccc2Cl)cs1)C1CC1 has what recorded bioavailability?
[A] 52

[Q] Given CC(C)[C@H](C(=O)Nc1nccs1)c1ccc(Cl)cc1 , state its recorded bioavailability.
[A] 15

====

System: Rattus norvegicus
Test protocol: Dose normalized unbound AUC in Sprague-Dawley rat at 3 mg/kg, po administered via gavage as single dose by LC-MS/MS analysis
Format: ADME, organism-based
Measurement setup: in vivo
Measurement kind: fAUC/dose (µM·min)
Record the value in µM·min, omitting the unit from your answer.

# annotated cases, reported fAUC/dose shown
Item smiles | Measurement kind | Observed result
O=C(O)C[C@@H](Cc1ccccc1)C(=O)N(c1nc(-c2cc(Cl)ccc2Cl)cs1)C1CC1 | fAUC/dose | 0.26
COc1ccc(-c2ccc(Cl)cc2-c2csc(N(C(=O)[C@@H](CC(=O)O)Cc3ccco3)C3CC3)n2)cn1 | fAUC/dose | 0.26
COc1ccc(-c2ccccc2-c2csc(N(C(=O)[C@@H](CC(=O)O)CC3CCCC3)C3CC3)n2)cn1 | fAUC/dose | 0.29

[Q] // fAUC/dose lookup, key: O=C(O)C[C@@H](CC1CCCC1)C(=O)N(c1nc(-c2ccccc2-c2ccc(-n3cccn3)nc2)cs1)C1CC1
[A] 0.07
